The reported measurements were obtained from patent US10233146B2.

The entries below are paired with their reported A (absorbance) With DTT (10 equiv).
TEST: UV study of Michael adduct formation with DTT
Format: physicochemical
CONDITION INFO: 0.1 mM compound, 1 mM DTT, phosphate buffer saline-1% ethanol (pH 7.4), rt
Respond with the number and no other words.

Use the examples below as a reference point.
C#CC1(C)C=C(C#N)C(=O)c2ccccc21 (stereo not shown)    0.872
C#CC12C=C(C#N)C(=O)C=C1CCC2 (stereo not shown)    0.355
C#CC1(C=C)C=CC(=O)C(C#N)=C1 (stereo not shown)    0.481
C#CC12C=C(C#N)C(=O)C=C1c1ccccc1CC2 (stereo not shown)    0.723
C#CC12C=C(C#N)C(=O)C=C1C(C)(C)CC2 (stereo not shown)    0.472
C#CC12C=C(C#N)C(=O)C=C1c1ccccc1C2 (stereo not shown)    0.820
C#CC12C=C(C#N)C(=O)C=C1c1c(Cl)cccc1CC2 (stereo not shown)    0.262
C#CC12C=C(C#N)C(=O)C=C1c1c(C)cccc1CC2 (stereo not shown)    0.279

Query: I am curious: what A (absorbance) With DTT (10 equiv) value has been reported for C#CC1(CC)C=CC(=O)C(C#N)=C1 (stereo not shown) ?
Reply: 0.353

Query: Consider the molecule shown here: C#CC12C=C(C#N)C(=O)C=C1c1c(Cl)cccc1C2 (stereo not shown) What is its recorded A (absorbance) With DTT (10 equiv)?
Reply: 0.803

* * *

TEST: UV study of Michael adduct formation with DTT
Type: physicochemical
CONDITION INFO: 0.1 mM compound, 0.1 mM DTT, phosphate buffer saline-1% ethanol (pH 7.4), rt
Consider the following compounds and their measured λmax With DTT (1 equiv) readings.
Give just the numeric value; nm need not be written.

# annotated cases, reported λmax With DTT (1 equiv) shown
C#CC1(CC)C=CC(=O)C(C#N)=C1 (stereo not shown)    332
C#CC12C=C(C#N)C(=O)C=C1C(C)(C)CC2 (stereo not shown)    333
C#CC12C=C(C#N)C(=O)C=C1CCC2 (stereo not shown)    333
C#CC1(C#C)C=CC(=O)C(C#N)=C1    330
C#CC12C=C(C#N)C(=O)C=C1c1c(Cl)cccc1CC2 (stereo not shown)    380

Query: Which λmax With DTT (1 equiv) is reported for this compound? C#CC12C=C(C#N)C(=O)C=C1c1ccccc1CC2 (stereo not shown)
Reply: 380

Query: Report λmax With DTT (1 equiv) for C#CC1(C)C=C(C#N)C(=O)c2ccccc21 (stereo not shown) please.
Reply: 331

Query: Item C#CC12C=C(C#N)C(=O)C=C1c1c(Cl)cccc1C2 (stereo not shown) has what recorded λmax With DTT (1 equiv)?
Reply: 378

Query: I am curious: what λmax With DTT (1 equiv) value has been reported for C#CC12C=C(C#N)C(=O)C=C1c1ccccc1C2 (stereo not shown) ?
Reply: 377

Query: State the recorded λmax With DTT (1 equiv) for this entry: C#CC1(C=C)C=CC(=O)C(C#N)=C1 (stereo not shown)
Reply: 335

* * *

Listing of entries alongside the reported melting point.

Guide cases for melting point, answers given:
C#CC12C=C(C#N)C(=O)C=C1c1c(Br)cccc1CC2 (stereo not shown)    202 to 205 °C
C#CC12C=C(C#N)C(=O)C=C1c1c(Cl)cccc1CC2 (stereo not shown)    > 230 °C
C#CC12C=C(C#N)C(=O)C=C1c1c(Cl)cccc1C2 (stereo not shown)    191 to 193 °C

Query: Which melting point is listed for C#CC12C=C(C#N)C(=O)C=C1c1ccccc1CC2 (stereo not shown) ?
Reply: 209.5 to 211 °C

Query: Would you mind telling me what melting point value was observed for C#CC1(CC)C=CC(=O)C(C#N)=C1 (stereo not shown) ?
Reply: 73 to 75 °C

* * *

TEST: UV study of Michael adduct formation with DTT
Assay type: physicochemical
CONDITION INFO: 0.1 mM compound, 0.1 mM DTT, phosphate buffer saline-1% ethanol (pH 7.4), rt
Listed next: entries and their corresponding A (absorbance) With DTT (1 equiv).
Field format: numeric only.

C#CC1(C)C=C(C#N)C(=O)c2ccccc21 (centres unmarked)    0.848
C#CC12C=C(C#N)C(=O)C=C1c1ccccc1C2 (centres unmarked)    0.808
C#CC12C=C(C#N)C(=O)C=C1C(C)(C)CC2 (centres unmarked)    0.376

Then this compound:
Query: If you can, please state the reported A (absorbance) With DTT (1 equiv) value of C#CC12C=C(C#N)C(=O)C=C1c1c(Cl)cccc1C2 (centres unmarked) .
Reply: 0.819

* * *

System: iNOS
Rule: IC50 below 500 nM gives True. Equal to or above 500 nM gives False.

Solved entries:
C#CC12C=C(C#N)C(=O)C=C1C(C)(C)CC2 (centres unmarked) [Compound 8]    True
C#CC12C=C(C#N)C(=O)C=C1c1ccccc1C2 (centres unmarked) [Compound 14]    True
C#CC12C=C(C#N)C(=O)C=C1c1c(Br)cccc1CC2 (centres unmarked) [Compound 12]    False

Query: Say whether its IC50 is strictly beneath 500 nM. Entry: C#CC1(C#C)C=CC(=O)C(C#N)=C1 [Compound 4]
Reply: True

Query: Check if IC50 falls below 500 nM for C[S+]([O-])CCCCN=C=S (centres unmarked) [Sulforaphane, reference compound] .
Reply: True

Query: Would you kindly verify if IC50 of C#CC12C=C(C#N)C(=O)C=C1c1c(C)cccc1CC2 (centres unmarked) [Compound 13] is strictly less than 500 nM?
Reply: False

* * *

TEST: UV study of Michael adduct formation with DTT
Assay type: physicochemical
CONDITION INFO: 0.1 mM of compound with 0.1 mM of DTT
The reader will find reported K (equilibrium constant) values listed item by item below.
Dear colleague, please return just the value in L/mol, with no unit written.

Use the examples below as a reference point.
C#CC1(C=C)C=CC(=O)C(C#N)=C1 (centres unmarked)    4000
C#CC1(CC)C=CC(=O)C(C#N)=C1 (centres unmarked)    1000
C#CC12C=C(C#N)C(=O)C=C1C(C)(C)CC2 (centres unmarked)    4200
C#CC12C=C(C#N)C(=O)C=C1CCC2 (centres unmarked)    2700

Here is another molecule to look at.
Query: Could you tell me which K (equilibrium constant) is on file for `C#CC1(C#C)C=CC(=O)C(C#N)=C1` ?
Reply: 10600

* * *

Catalogue of λmax Without DTT (With Cl^—) readings, one per entry.
TEST: UV study of Michael adduct formation with chloride anion of the buffer (without DTT)
Type: physicochemical
CONDITION INFO: 0.1 mM compound, phosphate buffer saline-1% ethanol (pH 7.4)
I'd appreciate it if you wrote the number followed by its unit.

C#CC1(C)C=C(C#N)C(=O)c2ccccc21 (centres unmarked) [Compound 9]    321 nm
C#CC1(C=C)C=CC(=O)C(C#N)=C1 (centres unmarked) [Compound 5]    326 nm
C#CC1(C#C)C=CC(=O)C(C#N)=C1 [Compound 4]    328 nm
C#CC12C=C(C#N)C(=O)C=C1CCC2 (centres unmarked) [Compound 7]    324 nm
C#CC12C=C(C#N)C(=O)C=C1c1c(Cl)cccc1C2 (centres unmarked) [Compound 15]    369 nm

Query: Reported λmax Without DTT (With Cl^—) for C#CC12C=C(C#N)C(=O)C=C1c1ccccc1C2 (centres unmarked) [Compound 14] : what is it?
Reply: 364 nm

Query: Given the entry C#CC1(CC)C=CC(=O)C(C#N)=C1 (centres unmarked) [Compound 6] , report its measured λmax Without DTT (With Cl^—).
Reply: 320 nm

Query: Entry under review: C#CC12C=C(C#N)C(=O)C=C1C(C)(C)CC2 (centres unmarked) [Compound 8] . Reported λmax Without DTT (With Cl^—)?
Reply: 324 nm

* * *

TEST: UV study of Michael adduct formation with chloride anion of the buffer (without DTT)
Type: physicochemical
CONDITION INFO: 0.1 mM compound, phosphate buffer saline-1% ethanol (pH 7.4)
EXPERIMENTAL ENDPOINT: A (absorbance) Without DTT (With Cl^—)
Could you respond with only the numeric value?

As a guide, the following entries are already answered.
C#CC12C=C(C#N)C(=O)C=C1c1c(Cl)cccc1C2 (centres unmarked)    1.025
C#CC12C=C(C#N)C(=O)C=C1c1ccccc1C2 (centres unmarked)    0.867
C#CC12C=C(C#N)C(=O)C=C1CCC2 (centres unmarked)    0.151
C#CC12C=C(C#N)C(=O)C=C1C(C)(C)CC2 (centres unmarked)    0.279
C#CC1(C)C=C(C#N)C(=O)c2ccccc21 (centres unmarked)    0.831

Query: Which A (absorbance) Without DTT (With Cl^—) is reported for this molecule? C#CC1(CC)C=CC(=O)C(C#N)=C1 (centres unmarked)
Reply: 0.036

Query: Need A (absorbance) Without DTT (With Cl^—) of `C#CC1(C#C)C=CC(=O)C(C#N)=C1` , thanks.
Reply: 0.635

Query: Which A (absorbance) Without DTT (With Cl^—) value is on record for C#CC1(C=C)C=CC(=O)C(C#N)=C1 (centres unmarked) ?
Reply: 0.197
